Attribute: pIC50
- Measured Target: UniProt P19793
- Sequence (P19793 whole entry): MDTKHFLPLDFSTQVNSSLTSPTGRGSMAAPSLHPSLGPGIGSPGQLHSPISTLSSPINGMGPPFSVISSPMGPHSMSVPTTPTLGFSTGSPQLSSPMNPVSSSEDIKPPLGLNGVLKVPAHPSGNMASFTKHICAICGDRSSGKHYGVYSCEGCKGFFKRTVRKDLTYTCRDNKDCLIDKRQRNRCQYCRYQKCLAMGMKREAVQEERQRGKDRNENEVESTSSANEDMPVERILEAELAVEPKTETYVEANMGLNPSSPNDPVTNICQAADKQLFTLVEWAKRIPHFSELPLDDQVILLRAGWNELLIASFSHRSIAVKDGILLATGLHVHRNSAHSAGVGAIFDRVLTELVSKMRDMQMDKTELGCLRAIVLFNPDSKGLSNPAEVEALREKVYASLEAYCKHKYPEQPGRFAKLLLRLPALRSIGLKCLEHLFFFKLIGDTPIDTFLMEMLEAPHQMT
- Assay Summary: Antagonist activity at human RXRalpha expressed in […] cells assessed as inhibition of 9-cis-retinoic acid-induced transactivation
- Type: functional, cell-based, HEK293
pIC50: −log10 of the molar value.
Quantity: pIC50

smiles_record=CCCCNc1ccc2c(c1)N=C(c1ccc(C(=O)O)cc1)c1cc3c(cc1N2C)C(C)(C)CCC3(C)C qualifier_operator=< recorded_number=5.00
smiles_record=CCCCS(=O)(=O)Nc1ccc2c(c1)N=C(c1ccc(C(=O)O)cc1)c1cc3c(cc1N2CCC)C(C)(C)CCC3(C)C qualifier_operator== recorded_number=6.85
smiles_record=CN1c2ccc(NS(=O)(=O)c3ccc(-c4ccccc4)cc3)cc2N=C(c2ccc(C(=O)O)cc2)c2cc3c(cc21)C(C)(C)CCC3(C)C qualifier_operator== recorded_number=5.89
smiles_record=CN1c2ccc(NS(=O)(=O)c3cc(C(F)(F)F)cc(C(F)(F)F)c3)cc2N=C(c2ccc(C(=O)O)cc2)c2cc3c(cc21)C(C)(C)CCC3(C)C qualifier_operator== recorded_number=5.92
smiles_record=CCCC(=O)Nc1ccc2c(c1)N=C(c1ccc(C(=O)O)cc1)c1cc3c(cc1N2C)C(C)(C)CCC3(C)C qualifier_operator== recorded_number=5.74
smiles_record=CCCCNC(=O)Nc1ccc2c(c1)N=C(c1ccc(C(=O)O)cc1)c1cc3c(cc1N2C)C(C)(C)CCC3(C)C qualifier_operator== recorded_number=5.48
smiles_record=CN1c2ccc(NS(=O)(=O)c3ccccc3F)cc2N=C(c2ccc(C(=O)O)cc2)c2cc3c(cc21)C(C)(C)CCC3(C)C qualifier_operator== recorded_number=5.64
smiles_record=CCCS(=O)(=O)Nc1ccc2c(c1)N=C(c1ccc(C(=O)O)cc1)c1cc3c(cc1N2CC)C(C)(C)CCC3(C)C qualifier_operator== recorded_number=6.47
